target: Alpha-glucosidase MAL12 (Saccharomyces cerevisiae (strain ATCC 204508 / S288c), UniProt P53341); experiment: In-vitro Yeast α-Glucosidase Inhibition Assay
Sequence (P53341 whole entry): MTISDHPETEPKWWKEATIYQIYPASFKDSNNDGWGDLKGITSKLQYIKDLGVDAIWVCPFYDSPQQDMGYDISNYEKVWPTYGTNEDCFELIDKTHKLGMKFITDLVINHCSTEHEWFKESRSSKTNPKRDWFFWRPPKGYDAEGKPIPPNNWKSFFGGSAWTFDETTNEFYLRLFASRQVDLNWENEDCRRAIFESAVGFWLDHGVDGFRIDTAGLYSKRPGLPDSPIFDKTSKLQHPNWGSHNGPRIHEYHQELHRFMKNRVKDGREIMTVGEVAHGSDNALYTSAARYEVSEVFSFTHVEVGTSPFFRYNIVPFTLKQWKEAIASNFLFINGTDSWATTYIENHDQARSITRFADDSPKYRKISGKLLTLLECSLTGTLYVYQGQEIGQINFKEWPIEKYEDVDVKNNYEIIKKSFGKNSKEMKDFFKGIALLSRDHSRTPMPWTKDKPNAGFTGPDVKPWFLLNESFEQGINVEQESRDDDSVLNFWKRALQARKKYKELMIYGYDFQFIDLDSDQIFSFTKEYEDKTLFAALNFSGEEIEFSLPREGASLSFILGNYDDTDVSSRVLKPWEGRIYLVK
pIC50: −log10 of the molar value.
property_measured: pIC50

Cc1n[nH]c2c1C(c1ccc(Cl)cc1Cl)C(C#N)=C(N)O2 (stereo not given) = 3.74

(I) Cc1[nH]nc2c1C(c1ccccc1OCc1ccccc1)C(C#N)=C(N)O2 (stereo not given)
(II) COc1cc(C2C(C#N)=C(N)Oc3n[nH]c(C)c32)ccc1OCc1ccccc1 (stereo not given)
Looking at I and II , which one comes out lower in pIC50 terms? To answer, give the label that identifies your chosen option.
I

(1) Cc1[nH]nc2c1C(c1ccc([N+](=O)[O-])cc1)C(C#N)=C(N)O2 (stereo not given)
(2) Cc1[nH]nc2c1C(c1ccc(O)c(OCc3ccccc3)c1)C(C#N)=C(N)O2 (stereo not given)
Looking at 1 and 2 , which one comes out lower in pIC50 terms? To answer, give the label that identifies your chosen option.
2
(2: 3.80, 1: 4.27)

All figures here come from BindingDB's records for doi:10.1016/j.bioorg.2016.01.008.
